- assay target: rBmLDH (Babesia microti)
- procedure text: biochemical
- Format: biochemical
parameter: pIC50
In textbook form, pIC50 equals minus log to base ten of the concentration in mol/L.

Worked examples, 2 molecules total:
[
  {
    "structure": "COc1c(O)cc(O)c2c(=O)cc(-c3ccccc3)oc12",
    "parameter": "pIC50",
    "reading": 3.84
  },
  {
    "structure": "CC(C)=CCC1=C(O)C(=O)c2ccccc2C1=O",
    "parameter": "pIC50",
    "reading": 3.14
  }
]

Kindly review the next molecule as well.
Could you tell me which pIC50 is on file for "OC[C@H]1O[C@@H](Oc2cc(O)cc(/C=C/c3ccc(O)cc3)c2)[C@H](O)[C@@H](O)[C@@H]1O" ?
3.85

* * *

- assay target: rBmPYKI (Babesia microti, UniProt A0A1N6LXR4)
- Sequence (A0A1N6LXR4 1-489): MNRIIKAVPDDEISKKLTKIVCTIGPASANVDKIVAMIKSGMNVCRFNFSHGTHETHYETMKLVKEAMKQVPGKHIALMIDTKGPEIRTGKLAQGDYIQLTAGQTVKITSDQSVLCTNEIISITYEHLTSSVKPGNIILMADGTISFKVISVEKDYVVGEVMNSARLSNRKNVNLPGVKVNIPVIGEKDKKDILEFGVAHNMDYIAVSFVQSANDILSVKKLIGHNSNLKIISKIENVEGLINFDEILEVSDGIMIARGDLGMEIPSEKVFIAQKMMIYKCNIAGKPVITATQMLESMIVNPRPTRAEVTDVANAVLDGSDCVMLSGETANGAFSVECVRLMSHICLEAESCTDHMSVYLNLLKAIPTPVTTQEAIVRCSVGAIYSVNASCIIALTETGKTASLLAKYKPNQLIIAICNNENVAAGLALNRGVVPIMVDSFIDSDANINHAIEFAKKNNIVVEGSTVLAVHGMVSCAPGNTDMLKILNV
- procedure text: biochemical
- Type: biochemical
- measurement conditions: read-out: IC50 rBmPYKI
parameter: IC50 (µM)
Please give a number only; it is taken to be in µM.

Known results for compounds:
[
  {
    "compound": "CC1=C(CSC(=S)N2CCCCC2)C(=O)c2ccccc2C1=O",
    "IC50 [µM]": 23
  },
  {
    "compound": "CN(CCOc1ccc(CC2SC(=O)NC2=O)cc1)c1ccccn1 (centres unmarked)",
    "IC50 [µM]": 6.89
  },
  {
    "compound": "Cc1ccc(C(=O)Nc2ccc(S(=O)(=O)O)c3cc(S(=O)(=O)O)cc(S(=O)(=O)O)c23)cc1NC(=O)c1cccc(NC(=O)Nc2cccc(C(=O)Nc3cc(C(=O)Nc4ccc(S(=O)(=O)O)c5cc(S(=O)(=O)O)cc(S(=O)(=O)O)c45)ccc3C)c2)c1",
    "IC50 [µM]": 125
  }
]

Here's the next entry for you.
May I ask what IC50 has been recorded for O=c1cc(-c2ccccc2)oc2ccc(O)cc12 [6-Hydroxyflavone] ?
390

* * *

- procedure text: in vitro
- measurement conditions: human
parameter: CC50 (µM)
Please reply with the bare figure in µM and do not write the unit itself.

Param item = O=c1cc(-c2ccc(O)cc2)oc2cc(O)cc(O)c12 [Apigenin] ; retrieve measured CC50.
33

* * *

- procedure text: Cytotoxicity assay, Cell Counting Kit-8, Vero cells
- measurement conditions: African green monkey
parameter: CC50 (nM)
Numeric only. Scale: nM

I am curious: what CC50 value has been reported for "CC(C)=CC[C@@H](O)C1=CC(=O)c2c(O)ccc(O)c2C1=O" ?
2370

* * *

- procedure text: Cytotoxicity assay, Cell Counting Kit-8, HFF cells
- measurement conditions: human
parameter: CC50 (nM)
# number only, unit nM dropped from output

Request the reported CC50 associated with CC(C)=CC[C@@H](O)C1=CC(=O)c2c(O)ccc(O)c2C1=O [Shikonin]
630

* * *

Measured pIC50 values are reported for all entries that follow.
- assay target: rBmLDH (Babesia microti, UniProt I7J7V6)
- Sequence (I7J7V6 1-332): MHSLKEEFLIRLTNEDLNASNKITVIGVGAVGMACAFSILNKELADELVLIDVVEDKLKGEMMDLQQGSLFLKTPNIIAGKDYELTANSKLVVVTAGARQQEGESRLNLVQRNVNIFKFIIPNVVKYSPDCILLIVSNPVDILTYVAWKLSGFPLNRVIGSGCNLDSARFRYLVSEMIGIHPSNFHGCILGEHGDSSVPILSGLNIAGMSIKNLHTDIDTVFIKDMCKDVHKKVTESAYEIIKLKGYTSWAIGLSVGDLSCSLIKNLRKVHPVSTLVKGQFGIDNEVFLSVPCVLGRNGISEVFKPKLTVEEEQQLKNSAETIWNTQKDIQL
- procedure text: biochemical
- Assay type: biochemical
- measurement conditions: read-out: IC50 rBmLDH
pIC50: −log10 of the molar value.

Worked examples, 3 compounds total:
[
  {
    "compound": "O=c1cc(-c2ccc(O)cc2)oc2cc(O)cc(O)c12",
    "pIC50": "< 2.71"
  },
  {
    "compound": "Cc1ccc(C(=O)Nc2ccc(S(=O)(=O)O)c3cc(S(=O)(=O)O)cc(S(=O)(=O)O)c23)cc1NC(=O)c1cccc(NC(=O)Nc2cccc(C(=O)Nc3cc(C(=O)Nc4ccc(S(=O)(=O)O)c5cc(S(=O)(=O)O)cc(S(=O)(=O)O)c45)ccc3C)c2)c1",
    "pIC50": 4.35
  },
  {
    "compound": "CCc1ccc(CCOc2ccc(CC3SC(=O)NC3=O)cc2)nc1 (stereo not shown)",
    "pIC50": "< 2.71"
  }
]

Using the record for "O=c1cc(-c2ccccc2)oc2ccccc12" , report its pIC50.
< 2.71

Looking for the measured pIC50 of "CC(C)=CC[C@@H](O)C1=CC(=O)c2c(O)ccc(O)c2C1=O" , can you help?
< 2.71

# input compound: O=c1cc(-c2ccccc2)oc2ccc(O)cc12 [6-Hydroxyflavone] ; wanted: its pIC50
3.08

Look up pIC50 for this compound: "CC1=C(CSC(=S)N2CCCCC2)C(=O)c2ccccc2C1=O"
< 2.71

Every entry's value here was drawn from paper PMC8481833.
